- System: HeLa
- Assay Procedure: Cytotoxicity against human HeLa cells after 24 hrs by MTT assay
- Assay type: functional, cell-based
Measured Parameter: pIC50
Remember the convention: pIC50 equals -log10 of concentration in molar.

Req: Quick check: pIC50 of "COc1ccc([C@@H](C)NC(=S)Nc2ccc(F)c(Cl)c2)cc1" ?
Resp: 4.11

Req: Quick check: pIC50 of CC(Nc1nc2cc(Cl)c(F)cc2s1)c1ccc(F)cc1 (single isomer, unassigned) ?
Resp: 4.21

Req: Quick check: pIC50 of CC(Nc1nc2cc(Cl)c(F)cc2s1)C1CCCCC1 (single isomer, unassigned) ?
Resp: 4.14

Req: Quick check: pIC50 of "C[C@@H](NC(=S)Nc1ccc(F)c(Cl)c1)c1ccccc1" ?
Resp: 4.18

Req: Quick check: pIC50 of "Fc1cc2sc(N[C@@H]3CCCC[C@@H]3OCc3ccccc3)nc2cc1Cl" ?
Resp: 4.22

Req: Quick check: pIC50 of "CCCCCC[C@@H](C)NC(=S)Nc1ccc(F)c(Cl)c1" ?
Resp: 4.31

Req: Quick check: pIC50 of "CCCCCC[C@@H](C)Nc1nc2cc(Cl)c(F)cc2s1" ?
Resp: 4.32

Req: Quick check: pIC50 of Fc1ccc(NC(=S)NC2CCCCC2OCc2ccccc2)cc1Cl (stereo not given) ?
Resp: 4.47

Req: Quick check: pIC50 of CC(Nc1nc2cc(Cl)c(F)cc2s1)c1ccccc1 (single isomer, unassigned) ?
Resp: 4.23

Req: Quick check: pIC50 of "C[C@@H](Nc1nc2cc(Cl)c(F)cc2s1)c1ccc(Cl)cc1" ?
Resp: 4.16

====

- System: HeLa
- Assay Procedure: Cytotoxicity against human HeLa cells after 24 hrs by MTT assay
- Assay type: functional, cell-based
Measured Parameter: pIC50
Remember the convention: pIC50 equals -log10 of concentration in molar.

Req: Quick check: pIC50 of "C[C@@H](NC(=S)Nc1ccc(F)c(Cl)c1)c1ccc(F)cc1" ?
Resp: 4.15

Req: Quick check: pIC50 of CCC(Nc1nc2cc(Cl)c(F)cc2s1)c1ccccc1 (single isomer, unassigned) ?
Resp: 4.27

Req: Quick check: pIC50 of "C[C@@H](NC(=S)Nc1ccc(F)c(Cl)c1)c1ccc(Cl)cc1" ?
Resp: 4.37
